assay: yeast display, Sf9 membrane polyspecificity reagent, FACS + sequencing; frameworks hold sequencing errors

| CONSTRUCT_SEQUENCE | polyreactivity (PSR sort gate) |
| --- | --- |
| QVQLVESGGGLVQAGGSLRLSCAASGRTFVVYAMGWYRQAPGKERELVAVISFTGDSTFYADSVKGRFTISRDNGKNTVYLQMNSLKPEDTAVYYCAADFRRVFSKYSYYLYFDFDYWGQGTLVTVSS | low polyreactivity |
| PVQLVESGGGLVQAGGSLRLSCAASGRTVGYAMGWYRQSPWKERELVARINRTTGSTYYADSVKGRFTISRDNAKNTVYLQMKRLKPEDTAVYYCNAKSYYYSRWSRYYCTGYYYWGQGTQVTVSS | high polyreactivity |
| QVQLVESGGGLVQAGGSLRLSCAASGRIFTRNAMGWYRQAPGKERQLVAAISHSGGSTYADSVKGRFTISRDNAKNTVYLQMNSLKPEDTAVYYCAADSPYGYYEGDYCGQGTQVTVSS | low polyreactivity |
| QVQLVESGGGLVQAGGSLRLSCAACGSIFYGNAMGWDRQAPGKVRELVAAITQGATSTYYADSVKGRFTISRDNAKNTVDLQMNSLKPEDTAVYYCAAVLAWRYTYYYWGQGTQVTVSS | high polyreactivity |
| QVHLVESGGGLVQAGGSLRLSSAAYGGIFDDNAMGWYRQAHGKERELVAAISSSGGSTYYADSVKGRFTISRDNAKYTVYLQMNSLKPEDTAVYYCNADRRRRFGYWGQGTQVNVSS | high polyreactivity |
| QVQLVESGGGLVHSGGSLRLSCAASGSIFDYYAMGLYRQAPGKERELVAAISWRGGTTYYADSVKGRFTISRDNANNTVFLQMNRLKPEYTAVYYCNADKRFRRYDYWGQGNQVTVSS | high polyreactivity |
| QVQLVESGGGLVQAGGSLRLSCAASGITFYYNAMGWYRQAPGKERELVADISARGGSTYYADSVKGRFTISRDNAKNTVYLQMNCLIPEDTAVYYCNTYPKKKRPNEYDYWGQGTQVSVSS | high polyreactivity |
| QDQDVESGGGLVQARGSLPLSCAASGSIFAWYAMGWYRQSPGKERELLAVITSSDGSTHYADSVKGRFTISRDNAKNSVYLQMISLKPEDTAVYYCAAFRSLRESKGYWWEYYSWGQGTQVTVSS | low polyreactivity |
| QVQLVESGGGLVQAGGSLRLSCAASGFTFLAYAMGWYRQAPGKERELGAAISKSGGSTYYADSVKGRFTISRDNAKITVYLQMNSLKPEDTAVYYCNAGRRIKFYGSYDYWGQGTQVTVSS | high polyreactivity |
| QFQLVESGGGLVQAGGSLRISCAASGSIFLFYAMGWYRKAPGKERELVAAIDQSGGSTYYADSVKGRFTFSRDNAKKTVYFQMNSLKPEDTAVYYSAAVHSLYWLGDDTYGYDYWGQGTQVTVSS | low polyreactivity |
| QVQLVESGGGLVQAGGSLRLSCAASGFTFLAYAMGWYRQAPGKERELVAAISRSGGRTYYADSVKGRFTISRDNAKNTVYLQMNSLNPEDTAVYYCAAPPRANLFDYWGQGTQVTVSS | high polyreactivity |
| QVQRVESGGGLVQAGGSLRLSCAASGRTVGYYAMGWYRQAPGKERELLAAITRTGGSTHYADSVKGRFTISRANAKNTVYIQMNSLKPEDTAVYYCARDYRYTIPYDYWGQGTQVTVSS | low polyreactivity |
| QVQLVESGGGLVQAGGSLRLSCAASGFTFHYYTMGWYRQAPGKERELVASINYSGGRTYYADSVKGRFTISRDNAKNTVYLQMNSLKPEDTAVYYCNARYKSTYYYWGQGTQVTVSS | high polyreactivity |
| QVQLVESGGGLVQAGGSLRLSCAASGRIFLLNAMGWYRQAPGKERELVARISSGRTYYADSVKGRFTISRDNAKNTVYLNMNSLKPEDTAVYYCNATVSSSKYRYFYVNPYYYWGQGTQVTVSS | low polyreactivity |
| QVQLVESGGGLVQAGGSLRLSCAASGSTFYRYAMGWYRQAPGKERELVAAISTRSGSTYYADSVKGRFTISRDNAKNTVYLQMNSLKPEDTAVYYCAADGHKKTARKYYYWGQGTQVTVSS | low polyreactivity |
| QVQLVESGGGLVQAGGSLRLSCAASGRISESNDMGWSRQAPWKERELVAAISSSGGSTYYADSVKGRFTISRDNAKNTVYLQMNSLKPEDTAVYYCNAVYYRTVLKIGVYEYDYWGQGTQVTVSS | low polyreactivity |
| QDQLVESGGGLVQAGGSLRLSCAASGRIFRPNTMGWYRQAPGKERELVASISLSAGSTYYADSVKGRFTISRDNAKNTVYLQMNSLKPEDTAVYYCNATYLSWYRYKYNYWGQGTQVTVSS | low polyreactivity |
| QVQLVESGGGLVQAGGSLRLSCAASGFTFYINAMGWYRQAPGKEREFVAAITSRGGSTYYADSVKGRFTISRDNAKNTVYLQMNSLKPEDTAVYYCAARNFLSRRGTYDYWGQGTQVTVSS | high polyreactivity |
| QVQLVESGGGLVQAGGSLRLSCAASGLTFYYYAMGWYRQAPGKERELVAAISRSGGSTYYADSVKGRFTISRDNAKNTVYLQMNSLKPEDTAVYYCAADYFTLYPYRGYDYWGQGTQVTVSS | low polyreactivity |
| QVQLVESGGGLVQAGGSLRLSCAASGSTFPSYAMGWYRQAPGKERELVAAITRSGGRTYYADSVKGRFTISRDNAKNTVYLQMNSLKPEDTAVYYCAADLGRNYDYWGQGTQVTVLS | low polyreactivity |
| QVQLVESGGGLVQAGGSLRLSCAASGRIFHANAMGWSRQAPGKERELVAGISRNGGRTYYADSVKGRFTISRDNAKNTVYLQMNSLKPEDTAVYYCNALHWQSKELDYFWGQGTQVTVSS | high polyreactivity |
